Data provenance is patent US20240317858A1.

- assayed-target: T1, Cynomolgus CD3 on HSC-F cells (cynomolgus, UniProt Q95LI5 22-198)
- T1 construct: whole, on cells; Target is the endogenous CD3 complex on cells; also called Cyno CD3 HSC-F cells; Cyno CD3+ HSC-F cells
- T1 sequence (Q95LI5 22-198): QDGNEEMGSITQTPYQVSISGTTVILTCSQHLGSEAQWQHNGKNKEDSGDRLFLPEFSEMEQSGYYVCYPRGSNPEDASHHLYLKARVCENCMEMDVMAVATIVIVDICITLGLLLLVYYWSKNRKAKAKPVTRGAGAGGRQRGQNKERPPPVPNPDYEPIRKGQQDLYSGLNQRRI
- measurement-notes: flow cytometry, 100 nM IgG
readout-kind: MFI (MFI)

1. Antibody No. V005 (ADI-67448) IgG1 (antibody, V domains shown, IgG1, CHO-produced; VH as printed is identical to that of V004) VH: QVQLVQSGAEVKKPGASVKVSCKASGFNIDDYYMHWVRQAPGQRLEWMGWIDLENDNTIYDAKFQGRVTITRDTSASTAYMELSSLRSEDTAVYYCARDAYGRYFYDVWGQGTLVTVSS VL: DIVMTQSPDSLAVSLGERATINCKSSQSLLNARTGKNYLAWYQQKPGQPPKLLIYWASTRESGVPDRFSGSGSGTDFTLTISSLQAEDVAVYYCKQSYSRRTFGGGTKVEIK
5940
2. Antibody No. V008 (ADI-70325) IgG1 (antibody, V domains shown, IgG1, CHO-produced) VH: QVQLVQSGAEVKKPGASVKVSCKASGFNIKDYYMHWVRQAPGQRLEWIGWIDLENAETVYDAKFQDRVTITRDTSASTAYMELSSLRSEDTAVYYCARDAYGRYFYDVWGQGTLVTVSS VL: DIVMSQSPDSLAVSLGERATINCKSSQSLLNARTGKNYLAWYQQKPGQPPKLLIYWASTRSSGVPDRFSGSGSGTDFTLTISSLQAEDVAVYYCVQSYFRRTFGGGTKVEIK
6400
3. Antibody No. V013 (ADI-70330) IgG1 (antibody, V domains shown, IgG1, CHO-produced) VH: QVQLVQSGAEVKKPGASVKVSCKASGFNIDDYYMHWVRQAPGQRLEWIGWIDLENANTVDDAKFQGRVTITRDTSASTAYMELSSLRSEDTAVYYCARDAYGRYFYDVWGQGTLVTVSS VL: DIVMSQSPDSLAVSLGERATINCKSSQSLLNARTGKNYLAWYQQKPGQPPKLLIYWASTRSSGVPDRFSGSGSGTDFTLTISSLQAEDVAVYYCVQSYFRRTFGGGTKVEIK
5740
4. Antibody No. V012 (ADI-70329) IgG1 (antibody, V domains shown, IgG1, CHO-produced) VH: QVQLVQSGAEVKKPGASVKVSCKASGFNDKDYYMHWVRQAPGQRLEWIGWIDLENAETVYDAKFQDRVTITRDTSASTAYMELSSLRSEDTAVYYCARDAYGRYFYDVWGQGTLVTVSS VL: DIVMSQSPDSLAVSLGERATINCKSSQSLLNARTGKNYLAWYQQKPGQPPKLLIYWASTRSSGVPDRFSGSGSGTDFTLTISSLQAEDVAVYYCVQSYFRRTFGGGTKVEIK
5800
5. Antibody No. V006 (ADI-67449) IgG1 (antibody, V domains shown, IgG1, CHO-produced) VH: QVQLVQSGAEVKKPGASVKVSCKASGFNDKDYYMHWVRQAPGQRLEWMGWIDLENAETIYDAKFQDRVTITRDTSASTAYMELSSLRSEDTAVYYCARDAYGRYFYDVWGQGTLVTVSS VL: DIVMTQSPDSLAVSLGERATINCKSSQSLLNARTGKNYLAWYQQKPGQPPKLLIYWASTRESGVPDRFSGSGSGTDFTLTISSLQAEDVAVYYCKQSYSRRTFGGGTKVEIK
5750
6. Antibody No. V003 (ADI-67446) IgG1 (antibody, V domains shown, IgG1, CHO-produced) VH: QVQLVQSGAEVKKPGASVKVSCKASGFDIKDYYMHWVRQAPGQRLEWMGWIELENADTIYDAKFQGRVTITRDTSASTAYMELSSLRSEDTAVYYCARDAYGRYFYDVWGQGTLVTVSS VL: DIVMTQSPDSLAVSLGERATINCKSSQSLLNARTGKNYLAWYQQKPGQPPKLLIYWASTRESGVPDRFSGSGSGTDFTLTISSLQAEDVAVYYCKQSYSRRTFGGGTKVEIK
6010
7. Antibody No. A002 (ADI-50024) IgG1 (antibody, V domains shown, IgG1, CHO-produced) VH: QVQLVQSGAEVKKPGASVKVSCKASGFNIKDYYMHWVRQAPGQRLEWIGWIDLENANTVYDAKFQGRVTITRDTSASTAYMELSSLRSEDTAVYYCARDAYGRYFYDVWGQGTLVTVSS VL: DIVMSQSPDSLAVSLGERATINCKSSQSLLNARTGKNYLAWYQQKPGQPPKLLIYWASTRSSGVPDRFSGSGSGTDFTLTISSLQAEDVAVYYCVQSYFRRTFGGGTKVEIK
6310
8. Antibody No. V011 (ADI-70328) IgG1 (antibody, V domains shown, IgG1, CHO-produced) VH: QVQLVQSGAEVKKPGASVKVSCKASGFNIDDYYMHWVRQAPGQRLEWIGWIDLENDNTVYDAKFQGRVTITRDTSASTAYMELSSLRSEDTAVYYCARDAYGRYFYDVWGQGTLVTVSS VL: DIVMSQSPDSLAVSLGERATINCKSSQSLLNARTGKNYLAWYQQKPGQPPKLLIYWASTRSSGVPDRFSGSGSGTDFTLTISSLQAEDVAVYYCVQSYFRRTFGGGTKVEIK
5910
9. Antibody No. V010 (ADI-70327) IgG1 (antibody, V domains shown, IgG1, CHO-produced) VH: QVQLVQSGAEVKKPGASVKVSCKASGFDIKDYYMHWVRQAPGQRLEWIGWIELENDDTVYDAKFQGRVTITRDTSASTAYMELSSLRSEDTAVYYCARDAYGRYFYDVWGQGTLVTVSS VL: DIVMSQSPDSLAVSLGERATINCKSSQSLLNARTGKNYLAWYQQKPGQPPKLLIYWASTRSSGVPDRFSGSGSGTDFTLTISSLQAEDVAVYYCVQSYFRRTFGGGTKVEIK
5860
10. Antibody No. V002 (ADI-67445) IgG1 (antibody, V domains shown, IgG1, CHO-produced) VH: QVQLVQSGAEVKKPGASVKVSCKASGFNIKDYYMHWVRQAPGQRLEWMGWIDLENAETIYDAKFQDRVTITRDTSASTAYMELSSLRSEDTAVYYCARDAYGRYFYDEWGQGTLVTVSS VL: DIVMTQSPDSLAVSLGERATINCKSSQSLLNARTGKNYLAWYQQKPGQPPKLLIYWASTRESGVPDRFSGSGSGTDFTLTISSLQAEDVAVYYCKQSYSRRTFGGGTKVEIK
5960
